Tested on: MAP4K2;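 further: kd values determined as follow-up on hits from a single-replicate KINOMEscan panel screen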
metric_name: Kd

Request: // query Kd value for entry Cc1nnc(-c2ccc3ncn(-c4ccc(S(C)=O)cc4)c3c2)o1 (stereo not shown)
Result: > 10 µM

---

Test system: MLCK;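 further: KINOMEscan kinase panel screen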
Construct: gene MYLK3
test_settings: concentration: 1 μM, replicates: in singlicate; n = 1
Cut-off 2% on %Inh: below means 1, at or above means -1.

1) CCS(=O)c1ccc(-c2coc3ccc(-c4nnc(C)o4)cc23)cc1 (stereo not shown)    1
2) C[C@@H]1CC[C@H](C(=O)NC2CCCCC2)CN1c1cc(-c2ccc3c(N)n[nH]c3c2)nc(N)n1 [GSK2291363]    1
3) OCCCNc1nccc(-c2c(-c3cccc(C(F)(F)F)c3)nn3cc(C(F)(F)F)ccc23)n1 [GW630813]    1
4) O=C(Nc1n[nH]c2nc(-c3ccccc3)c(Br)cc12)C1CC1 [SB-708998]    -1
5) Cc1nc(N(C)[C@H]2CN(C(=O)CC#N)CC[C@H]2C)c2cc[nH]c2n1    1

Request: # TODO verify %Inh < 2% strictly for this compound: Cc1nnc(-c2ccc3ncn(-c4ccc(S(C)=O)cc4)c3c2)o1 (stereo not shown)
Result: -1

Request: Given the entry O=C(Nc1n[nH]c2nc(-c3ccccc3)c(Cl)cc12)C1CC1 [SB-734909] , would its reported %Inh be below 2%?
Result: -1

Request: Given the entry CC(C)(C)c1ccc(C(=O)Nc2cn3cc(-c4ccccc4)ccc3n2)cc1 , would its reported %Inh be below 2%?
Result: -1

Request: Bench note: check whether O=C(NCCNc1ccnc(Nc2ccc(F)cc2)n1)Nc1ccc2c(c1)OCO2 [GSK1379882] shows %Inh below 2%
Result: 1

Request: Here's an entry: COc1cc2nccc(Nc3cccc(Oc4ccccc4)c3)c2cc1OC.Cl [GW284543] . Is its %Inh below 2%?
Result: -1

Request: Consider Cc1ccccc1COc1cc(-n2cnc3cc(Cl)ccc32)sc1C(N)=O [GW813349] . Does its %Inh lie strictly below 2%?
Result: 1
